biological target: Phosphatidylinositol 3-kinase catalytic subunit type 3 (Homo sapiens, UniProt Q8NEB9); assay: Inhibition of VPS34 in human HL-60 cell extract measured after 2 hrs by kinobeads based chemoproteomic competition binding assay
Sequence (Q8NEB9 whole entry): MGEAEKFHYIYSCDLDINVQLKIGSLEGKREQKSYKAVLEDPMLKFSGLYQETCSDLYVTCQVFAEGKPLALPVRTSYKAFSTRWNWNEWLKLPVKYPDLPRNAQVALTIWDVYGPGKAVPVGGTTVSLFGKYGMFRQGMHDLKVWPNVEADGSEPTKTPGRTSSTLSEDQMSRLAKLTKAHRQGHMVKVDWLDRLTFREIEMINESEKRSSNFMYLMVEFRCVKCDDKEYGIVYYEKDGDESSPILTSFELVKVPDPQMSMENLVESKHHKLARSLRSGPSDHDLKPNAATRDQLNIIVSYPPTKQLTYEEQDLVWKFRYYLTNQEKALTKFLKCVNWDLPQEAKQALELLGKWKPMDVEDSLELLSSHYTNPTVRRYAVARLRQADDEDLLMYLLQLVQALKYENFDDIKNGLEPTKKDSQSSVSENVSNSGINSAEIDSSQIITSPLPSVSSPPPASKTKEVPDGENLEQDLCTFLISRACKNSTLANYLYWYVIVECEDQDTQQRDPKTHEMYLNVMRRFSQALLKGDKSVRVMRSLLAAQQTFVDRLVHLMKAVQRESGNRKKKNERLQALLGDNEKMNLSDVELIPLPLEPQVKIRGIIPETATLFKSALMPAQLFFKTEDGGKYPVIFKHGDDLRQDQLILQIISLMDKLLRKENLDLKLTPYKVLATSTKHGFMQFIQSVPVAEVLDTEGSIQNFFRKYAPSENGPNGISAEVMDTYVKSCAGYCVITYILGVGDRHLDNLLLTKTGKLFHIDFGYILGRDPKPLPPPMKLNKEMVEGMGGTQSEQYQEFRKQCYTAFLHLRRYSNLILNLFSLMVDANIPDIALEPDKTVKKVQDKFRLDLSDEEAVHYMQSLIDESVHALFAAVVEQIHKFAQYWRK
readout-kind: pIC50
pIC50 is a log-scale quantity: -log10 of the concentration expressed in molar.

Looking up COc1ncc(C2=CCOCC2)cc1S(=O)(=O)Nc1cncc(C#CCN2CCN(C(C)C)CC2)c1 , I see its pIC50 listed as 7.00

* * *

molecular target: PI3-kinase p110-alpha/p85-alpha (Homo sapiens, UniProt P42336); assay: Inhibition of recombinant human N-terminal His6-tagged full length P110alpha/full length untagged human p85alpha expressed in baculovirus infected Sf21 insect cells using PIP2 as substrate preincubated for 15 mins followed by substrate addition and measured after 60 mins by HTRF assay
Sequence (P42336 whole entry, one chain of several): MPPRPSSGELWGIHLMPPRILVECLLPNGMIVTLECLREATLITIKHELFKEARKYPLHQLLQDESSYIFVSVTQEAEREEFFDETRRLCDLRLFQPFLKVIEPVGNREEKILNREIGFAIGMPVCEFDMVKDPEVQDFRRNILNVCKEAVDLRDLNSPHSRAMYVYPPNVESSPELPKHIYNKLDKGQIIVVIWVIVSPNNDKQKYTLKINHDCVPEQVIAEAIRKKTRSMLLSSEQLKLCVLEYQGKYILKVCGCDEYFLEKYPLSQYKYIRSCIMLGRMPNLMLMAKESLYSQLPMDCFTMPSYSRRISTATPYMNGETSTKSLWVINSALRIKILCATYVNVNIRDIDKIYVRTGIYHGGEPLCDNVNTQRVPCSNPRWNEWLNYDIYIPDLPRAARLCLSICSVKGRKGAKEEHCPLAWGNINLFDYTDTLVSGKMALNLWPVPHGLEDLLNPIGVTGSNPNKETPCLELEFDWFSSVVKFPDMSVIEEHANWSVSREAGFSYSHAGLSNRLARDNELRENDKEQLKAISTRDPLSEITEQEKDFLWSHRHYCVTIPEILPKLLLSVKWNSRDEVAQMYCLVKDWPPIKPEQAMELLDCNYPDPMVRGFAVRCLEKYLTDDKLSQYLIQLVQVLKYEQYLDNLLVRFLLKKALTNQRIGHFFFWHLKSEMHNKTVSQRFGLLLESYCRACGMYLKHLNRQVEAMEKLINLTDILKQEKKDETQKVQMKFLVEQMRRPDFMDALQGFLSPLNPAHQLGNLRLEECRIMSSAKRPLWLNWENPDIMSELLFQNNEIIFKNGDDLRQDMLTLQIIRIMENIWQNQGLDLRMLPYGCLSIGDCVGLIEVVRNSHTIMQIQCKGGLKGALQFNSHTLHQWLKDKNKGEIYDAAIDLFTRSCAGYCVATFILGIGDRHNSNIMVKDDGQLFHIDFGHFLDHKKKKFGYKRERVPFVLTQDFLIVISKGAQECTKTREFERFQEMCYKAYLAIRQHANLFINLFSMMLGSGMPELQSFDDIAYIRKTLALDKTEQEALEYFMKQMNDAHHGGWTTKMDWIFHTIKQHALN
Doc: threshold 4000 nM (exclusive). Items with IC50 beneath it return rule met; others return rule not met.

Would you please look over these solved cases?
>  <compound>
COc1ncc(C2=CCOCC2)cc1S(=O)(=O)Nc1cncc(C2CC2CN(C)C)c1 (stereo unspecified)

>  <class>
rule not met

$$$$
>  <compound>
COc1ncc(C2=CCOCC2)cc1S(=O)(=O)Nc1cncc(-c2ccc(CN3CCCCC3)s2)c1

>  <class>
rule met

$$$$
>  <compound>
COc1ncc(C2=CCOCC2)cc1S(=O)(=O)Nc1cncc(-c2ccc(CN3CCN(C(C)C)CC3)cc2)c1

>  <class>
rule met

$$$$
>  <compound>
COc1ncc(C2=CCOCC2)cc1S(=O)(=O)Nc1cncc(-c2cccc(CN3CCCCC3)c2)c1

>  <class>
rule not met

$$$$

Decide: IC50 of COc1ncc(C2=CCOCC2)cc1S(=O)(=O)Nc1cncc(-c2ccc(CN3CCN(C)CC3)cc2)c1 strictly below 4000 nM?
rule met

Please let me know if COc1ncc(N2CCOCC2)cc1S(=O)(=O)Nc1cncc(C#CCN2CCN(C(C)C)CC2)c1 shows IC50 below 4000 nM.
rule not met

Decide: IC50 of COc1ncc(N2CCOCC2)cc1S(=O)(=O)Nc1cncc(-c2ccc(CN3CCN(C(C)C)CC3)cc2F)c1 strictly below 4000 nM?
rule met

* * *

target: PI3-kinase p110-delta/p85-alpha (Homo sapiens, UniProt O00329); assay: Inhibition of recombinant human N-terminal His6-tagged full length P110delta/full length untagged human p85alpha expressed in baculovirus infected Sf21 insect cells using PIP2 as substrate preincubated for 15 mins followed by substrate addition and measured after 60 mins by HTRF assay
Sequence (P27986 whole entry): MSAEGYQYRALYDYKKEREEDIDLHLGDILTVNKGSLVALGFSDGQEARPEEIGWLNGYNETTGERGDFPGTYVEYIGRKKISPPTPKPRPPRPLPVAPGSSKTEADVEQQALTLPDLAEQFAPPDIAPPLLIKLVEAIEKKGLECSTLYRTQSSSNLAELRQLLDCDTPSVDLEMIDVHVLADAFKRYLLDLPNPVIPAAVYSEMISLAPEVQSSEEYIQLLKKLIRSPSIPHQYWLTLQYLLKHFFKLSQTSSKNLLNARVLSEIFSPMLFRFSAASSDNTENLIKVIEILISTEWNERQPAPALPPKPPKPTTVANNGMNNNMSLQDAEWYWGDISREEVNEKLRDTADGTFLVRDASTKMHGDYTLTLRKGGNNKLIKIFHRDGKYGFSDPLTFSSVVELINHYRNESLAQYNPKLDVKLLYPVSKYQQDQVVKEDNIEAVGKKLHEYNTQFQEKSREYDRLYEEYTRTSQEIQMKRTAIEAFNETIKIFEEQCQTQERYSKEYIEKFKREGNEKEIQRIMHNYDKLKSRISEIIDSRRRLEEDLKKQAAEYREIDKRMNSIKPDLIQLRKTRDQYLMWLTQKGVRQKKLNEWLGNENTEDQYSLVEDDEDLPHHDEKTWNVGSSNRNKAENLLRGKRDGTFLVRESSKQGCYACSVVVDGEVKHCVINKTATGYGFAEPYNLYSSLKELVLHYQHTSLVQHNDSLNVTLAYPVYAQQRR
Sequence (O00329 whole entry): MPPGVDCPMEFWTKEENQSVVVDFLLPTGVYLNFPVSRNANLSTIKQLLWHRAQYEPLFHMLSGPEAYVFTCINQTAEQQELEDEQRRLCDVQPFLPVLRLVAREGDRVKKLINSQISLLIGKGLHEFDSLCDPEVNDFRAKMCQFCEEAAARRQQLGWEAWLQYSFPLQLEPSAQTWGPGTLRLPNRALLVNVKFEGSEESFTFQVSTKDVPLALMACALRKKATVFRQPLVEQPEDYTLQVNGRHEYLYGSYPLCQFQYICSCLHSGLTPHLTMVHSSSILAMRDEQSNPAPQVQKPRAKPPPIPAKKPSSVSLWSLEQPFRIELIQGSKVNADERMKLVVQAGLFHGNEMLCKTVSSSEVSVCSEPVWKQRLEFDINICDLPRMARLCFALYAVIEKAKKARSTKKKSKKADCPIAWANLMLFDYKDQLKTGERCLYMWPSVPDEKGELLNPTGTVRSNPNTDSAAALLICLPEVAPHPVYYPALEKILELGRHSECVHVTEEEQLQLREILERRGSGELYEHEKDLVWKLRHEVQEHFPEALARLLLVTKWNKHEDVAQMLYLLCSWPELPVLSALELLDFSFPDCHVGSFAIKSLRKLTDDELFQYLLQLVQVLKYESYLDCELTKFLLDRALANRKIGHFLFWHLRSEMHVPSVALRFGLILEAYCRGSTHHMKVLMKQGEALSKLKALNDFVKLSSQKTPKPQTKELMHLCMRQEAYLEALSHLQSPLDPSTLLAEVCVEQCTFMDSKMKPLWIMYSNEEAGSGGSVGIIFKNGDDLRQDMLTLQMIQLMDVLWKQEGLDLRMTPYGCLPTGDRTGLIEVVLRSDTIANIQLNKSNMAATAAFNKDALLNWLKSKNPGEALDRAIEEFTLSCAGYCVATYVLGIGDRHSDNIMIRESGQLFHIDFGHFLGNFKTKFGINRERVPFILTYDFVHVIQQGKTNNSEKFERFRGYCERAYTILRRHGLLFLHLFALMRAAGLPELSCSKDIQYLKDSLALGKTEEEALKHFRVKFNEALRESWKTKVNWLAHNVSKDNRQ
Response field label takes TRUE when IC50 is strictly below 6 nM and FALSE in all other cases.

Example entries begin here.
>  <record-smiles>
COc1ncc(C2=CCOCC2)cc1S(=O)(=O)Nc1cncc(C#CCN2CCN(C(C)C)CC2)c1

>  <study-system>
PI3-kinase p110-delta/p85-alpha (Homo sapiens, UniProt O00329)

>  <class>
FALSE

$$$$
>  <record-smiles>
COc1ncc(N2CCOCC2)cc1S(=O)(=O)Nc1ccnc(-c2ccc(CN3CCN(C(C)C)CC3)cc2F)c1

>  <study-system>
PI3-kinase p110-delta/p85-alpha (Homo sapiens, UniProt O00329)

>  <class>
TRUE

$$$$
>  <record-smiles>
COc1ncc(C2=CCOCC2)cc1S(=O)(=O)Nc1cncc(C#CCN2C[C@@H](C)O[C@@H](C)C2)c1

>  <study-system>
PI3-kinase p110-delta/p85-alpha (Homo sapiens, UniProt O00329)

>  <class>
TRUE

$$$$
>  <record-smiles>
COc1ncc(C2=CCOCC2)cc1S(=O)(=O)Nc1cncc(-c2ccc(N3CCN(C(C)C)CC3)cc2)c1

>  <study-system>
PI3-kinase p110-delta/p85-alpha (Homo sapiens, UniProt O00329)

>  <class>
TRUE

$$$$
>  <record-smiles>
COc1ncc(N2CCOCC2)cc1S(=O)(=O)Nc1ccnc(-c2ccc(CN3CCN(C(C)C)CC3)cc2)c1

>  <study-system>
PI3-kinase p110-delta/p85-alpha (Homo sapiens, UniProt O00329)

>  <class>
TRUE

$$$$
>  <record-smiles>
COc1ncc(C2=CCOCC2)cc1S(=O)(=O)Nc1cncc(-c2ccc(CN3CCN(C(C)C)CC3)cc2)c1

>  <study-system>
PI3-kinase p110-delta/p85-alpha (Homo sapiens, UniProt O00329)

>  <class>
TRUE

$$$$
>  <record-smiles>
COc1ncc(C2=CCOCC2)cc1S(=O)(=O)Nc1cncc(-c2cccc(CN3CCCC3)c2)c1

>  <study-system>
PI3-kinase p110-delta/p85-alpha (Homo sapiens, UniProt O00329)

>  <class>
FALSE

$$$$
>  <record-smiles>
COc1ncc(C2=CCOCC2)cc1S(=O)(=O)Nc1cncc(-c2ccc(CN3CCN(C(C)C)CC3)nc2)c1

>  <study-system>
PI3-kinase p110-delta/p85-alpha (Homo sapiens, UniProt O00329)

>  <class>
TRUE

$$$$

Consider the compound COc1ncc(N2CCOCC2)cc1S(=O)(=O)Nc1cncc(-c2ccc(CN3CCCC3)cc2)c1 . Is its IC50 strictly less than 6 nM?
FALSE

Bench note: check whether COc1ncc(C2=CCOCC2)cc1S(=O)(=O)Nc1ccnc(C)c1 shows IC50 below 6 nM
FALSE

Please determine if COc1ncc(N2CCOCC2)cc1S(=O)(=O)Nc1cncc(C#CCN2CCN(C(C)C)CC2)c1 is below 6 nM in terms of IC50.
FALSE

For COc1ncc(N2CCOCC2)cc1S(=O)(=O)Nc1ccnc(-c2ccc(CN3CCN(C(C)C)CC3)c(F)c2)c1 , is the recorded IC50 below the cut-off of 6 nM?
TRUE

Consider the compound COc1ncc(C2=CCOCC2)cc1S(=O)(=O)Nc1cncc(C)c1 . Is its IC50 strictly less than 6 nM?
FALSE

Record COc1ncc(N2CCOCC2)cc1S(=O)(=O)Nc1cncc(-c2ccc(CN3CCN(C(C)C)CC3)cc2)c1 : is its IC50 strictly below 6 nM?
TRUE

# strict comparison: is reported IC50 < 6 nM? input = COc1ncc(N2CCOCC2)cc1S(=O)(=O)Nc1ccnc(-c2ccc(CN3CCC(C(C)(C)O)CC3)cc2F)c1
TRUE

Could you please tell me whether IC50 recorded for COc1ncc(N2CCOCC2)cc1S(=O)(=O)Nc1cncc(-c2ccc(CN3CCCC3)c(F)c2)c1 is less than 6 nM?
FALSE

Is the reported IC50 for COc1ncc(C2=CCOCC2)cc1S(=O)(=O)Nc1cncc(-c2ccc(CN3CCCCC3)s2)c1 strictly below 6 nM?
TRUE

Dear colleague, could you confirm whether IC50 of COc1ncc(C2=CCOCC2)cc1S(=O)(=O)Nc1cncc(-c2ccc(CN3C[C@@H](C)N(C)[C@@H](C)C3)cc2)c1 falls below 6 nM? Thanks.
TRUE
